biological target: Bifunctional dihydrofolate reductase-thymidylate synthase (Plasmodium falciparum K1, UniProt P13922, C59R/N51I/S108N); test: Binding affinity towards mutant dihydrofolate reductase (N51I+C59R+S108N DHFR) of Plasmodium falciparum
Sequence (P13922 whole entry, looked up, stated change not applied): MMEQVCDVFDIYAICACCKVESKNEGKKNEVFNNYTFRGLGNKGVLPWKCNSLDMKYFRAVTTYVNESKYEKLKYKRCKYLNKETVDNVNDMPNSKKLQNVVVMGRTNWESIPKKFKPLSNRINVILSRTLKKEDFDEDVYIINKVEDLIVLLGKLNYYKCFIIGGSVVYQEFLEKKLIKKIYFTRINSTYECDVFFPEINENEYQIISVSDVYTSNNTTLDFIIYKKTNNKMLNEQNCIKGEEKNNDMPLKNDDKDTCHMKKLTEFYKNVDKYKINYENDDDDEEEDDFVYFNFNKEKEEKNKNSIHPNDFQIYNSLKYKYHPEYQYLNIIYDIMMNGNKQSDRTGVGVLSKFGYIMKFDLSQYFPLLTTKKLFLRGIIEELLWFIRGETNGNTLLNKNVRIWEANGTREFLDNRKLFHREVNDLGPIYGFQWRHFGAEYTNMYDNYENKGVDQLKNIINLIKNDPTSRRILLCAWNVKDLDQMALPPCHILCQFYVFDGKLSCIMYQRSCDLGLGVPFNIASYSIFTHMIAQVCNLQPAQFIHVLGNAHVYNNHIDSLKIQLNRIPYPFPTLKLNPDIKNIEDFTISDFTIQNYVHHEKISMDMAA
Please respond with reported pKi for every item in the list.
Scale for pKi: -log10 of concentration given in mol/L; no unit attached.

[ask] Using known records, supply pKi for "Nc1nc(N)c(-c2cccc(Cl)c2)c(CCOCCCOc2ccccc2)n1"
[reply] 9.15

[ask] Using known records, supply pKi for CCCCCCCC1N=C(N)N=C(N)N1c1cccc(Cl)c1 (centres undefined)
[reply] 9.00

[ask] Using known records, supply pKi for "Nc1nc(N)c(-c2cccc(Cl)c2)c(CCCc2ccccc2)n1"
[reply] 8.70

[ask] Using known records, supply pKi for CCCCCCC1(C)N=C(N)N=C(N)N1c1cccc(Cl)c1 (centres undefined)
[reply] 8.26

[ask] Using known records, supply pKi for "Nc1nc(N)c(-c2ccccc2)c(CCCc2ccccc2)n1"
[reply] 8.96

[ask] Using known records, supply pKi for "Nc1nc(N)c(-c2cccc(Cl)c2)c(CCCOC(=O)c2ccccc2)n1"
[reply] 9.10

[ask] Using known records, supply pKi for NC1=NC(c2ccc(Oc3ccccc3)cc2)N(c2ccc(Cl)cc2)C(N)=N1 (centres undefined)
[reply] 7.53

[ask] Using known records, supply pKi for CC1N=C(N)N=C(N)N1c1ccc(Cl)cc1 (centres undefined)
[reply] 6.87

[ask] Using known records, supply pKi for NC1=NC(c2cccc(OCc3ccccc3)c2)N(c2cccc(Cl)c2)C(N)=N1 (centres undefined)
[reply] 8.49

[ask] Using known records, supply pKi for NC1=NC(c2cccc(OCCCOc3cc(Cl)c(Cl)cc3Cl)c2)N(c2cccc(Cl)c2)C(N)=N1 (centres undefined)
[reply] 8.70

[ask] Using known records, supply pKi for "Nc1nc(N)c(-c2ccc(Cl)cc2)c(CCCc2ccccc2)n1"
[reply] 7.82

[ask] Using known records, supply pKi for "COC(=O)CCCc1nc(N)nc(N)c1-c1ccc(Cl)cc1"
[reply] 7.53

[ask] Using known records, supply pKi for NC1=NC(c2cccc(Oc3cc(Cl)cc(Cl)c3)c2)N(c2cccc(Cl)c2)C(N)=N1 (centres undefined)
[reply] 9.00

[ask] Using known records, supply pKi for NC1=NC(c2cccc(Oc3cccc(C(F)(F)F)c3)c2)N(c2cccc(Cl)c2)C(N)=N1 (centres undefined)
[reply] 8.70

[ask] Using known records, supply pKi for "Nc1nc(N)c(-c2cccc(Cl)c2)c(CCCO)n1"
[reply] 8.64

[ask] Using known records, supply pKi for "Nc1nc(N)c(-c2ccccc2)c(CCCOC(=O)c2ccccc2)n1"
[reply] 9.15

[ask] Using known records, supply pKi for CCCC1(C)N=C(N)N=C(N)N1c1ccc(Cl)cc1 (centres undefined)
[reply] 6.25

[ask] Using known records, supply pKi for NC1=NC(c2ccc(Oc3ccccc3)cc2)N(c2cccc(Cl)c2)C(N)=N1 (centres undefined)
[reply] 9.05

[ask] Using known records, supply pKi for NC1=NC(c2ccccc2)N(c2cccc(Cl)c2)C(N)=N1 (centres undefined)
[reply] 6.95

[ask] Using known records, supply pKi for "COc1ccc(CCCc2nc(N)nc(N)c2-c2cccc(Cl)c2)cc1"
[reply] 8.89

[ask] Using known records, supply pKi for "Cc1nc(N)nc(N)c1-c1cccc(Cl)c1"
[reply] 8.19

[ask] Using known records, supply pKi for "COC(=O)CCCc1nc(N)nc(N)c1-c1ccccc1"
[reply] 8.48

[ask] Using known records, supply pKi for CC(C)C1(C)N=C(N)N=C(N)N1c1cccc(Cl)c1 (centres undefined)
[reply] 6.71

[ask] Using known records, supply pKi for NC1=NC(c2ccccc2)N(c2ccc(Cl)cc2)C(N)=N1 (centres undefined)
[reply] 6.71

[ask] Using known records, supply pKi for CCCCCCC1(C)N=C(N)N=C(N)N1c1ccc(Cl)cc1 (centres undefined)
[reply] 7.95

[ask] Using known records, supply pKi for "CCc1nc(N)nc(N)c1-c1ccc2c(c1)OCO2"
[reply] 8.08

[ask] Using known records, supply pKi for "Nc1nc(N)c(-c2ccccc2)c(CCCO)n1"
[reply] 7.23

[ask] Using known records, supply pKi for "Nc1nc(N)c(-c2cccc(Cl)c2)c(CCCOC(=O)OCc2ccccc2)n1"
[reply] 8.96

[ask] Using known records, supply pKi for NC1=NC(c2cccc(Oc3ccc(Cl)cc3)c2)N(c2ccc(Cl)cc2)C(N)=N1 (centres undefined)
[reply] 7.07

[ask] Using known records, supply pKi for "COC(=O)CCCc1nc(N)nc(N)c1-c1cccc(Cl)c1"
[reply] 9.11

[ask] Using known records, supply pKi for CC(C)C1(C)N=C(N)N=C(N)N1c1ccc(Cl)cc1 (centres undefined)
[reply] 5.86

[ask] Using known records, supply pKi for NC1=NC(c2cccc(Oc3ccccc3)c2)N(c2ccc(Cl)cc2)C(N)=N1 (centres undefined)
[reply] 7.63

[ask] Using known records, supply pKi for NC1=NC(c2cccc(OCc3ccccc3)c2)N(c2ccc(Cl)cc2)C(N)=N1 (centres undefined)
[reply] 6.66

[ask] Using known records, supply pKi for "CCCCCCc1nc(N)nc(N)c1-c1ccccc1"
[reply] 9.40

[ask] Using known records, supply pKi for CCc1nc(N)nc(N)c1-c1ccc(Cl)c(Cl)c1 [ETOPRINE]
[reply] 8.51

[ask] Using known records, supply pKi for "CC(=O)OCCCc1nc(N)nc(N)c1-c1cccc(Cl)c1"
[reply] 8.74

[ask] Using known records, supply pKi for NC1=NC(c2cccc(Oc3ccccc3)c2)N(c2cccc(Cl)c2)C(N)=N1 (centres undefined)
[reply] 8.60

[ask] Using known records, supply pKi for CC1(C)N=C(N)N=C(N)N1c1ccc(Cl)cc1 [CYCLOGUANIL]
[reply] 7.50

[ask] Using known records, supply pKi for NC1=NC(c2cccc(Oc3ccc(Cl)cc3)c2)N(c2cccc(Cl)c2)C(N)=N1 (centres undefined)
[reply] 8.72

[ask] Using known records, supply pKi for "CCc1nc(N)nc(N)c1-c1ccccc1"
[reply] 8.52

[ask] Using known records, supply pKi for "CC(=O)OCCCc1nc(N)nc(N)c1-c1ccccc1"
[reply] 8.30

[ask] Using known records, supply pKi for "CCc1nc(N)nc(N)c1-c1ccc(C)cc1"
[reply] 8.16

[ask] Using known records, supply pKi for CCCOc1ccc(C2N=C(N)N=C(N)N2c2cccc(Cl)c2)cc1 (centres undefined)
[reply] 8.68

[ask] Using known records, supply pKi for CCCC1(C)N=C(N)N=C(N)N1c1cccc(Cl)c1 (centres undefined)
[reply] 8.01
